Test: blockers of RIG-like receptor reporter activation – cell-based, Sendai virus stimulus, luciferase, 10K MLSCN set, TLR/RLR signaling modifier project, primary screen (AID 602276);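 further: firefly luciferase from ISG56 promoter only with Renilla not read in this screen; 0% = Sendai virus plus DMSO and 100% = medium plus DMSO without virus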
Conditions: HEK293 RL24 IRF3 luciferase reporter, at 10 µM, stronger effect = higher value

[
  {
    "molecule": "Nc1ncnc(Nc2ccccc2C(F)(F)F)n1",
    "inhibition / %": -28.4
  },
  {
    "molecule": "CCCn1c(=NC(C)=O)c(C#N)cc2c(=O)n3cccc(C)c3nc21",
    "inhibition / %": -11.4
  },
  {
    "molecule": "COc1ccc(OC)c(CNC(=O)COc2cc(=O)n(C)c3ccccc23)c1",
    "inhibition / %": 6.07
  },
  {
    "molecule": "CCSc1nnc(NC(=O)CCNS(=O)(=O)c2cc(Br)cnc2N)s1",
    "inhibition / %": 2.91
  },
  {
    "molecule": "O=C(c1ccc(Cl)c(F)c1F)N1CCCC1",
    "inhibition / %": -9.75
  },
  {
    "molecule": "COc1cccc(-c2cc(C(F)(F)F)nc(NCc3ccco3)n2)c1",
    "inhibition / %": -7.28
  },
  {
    "molecule": "O=C(O)CC1=C(O)C(=O)N(c2ccccc2)C1c1ccccc1 (configuration not stated)",
    "inhibition / %": 4.01
  },
  {
    "molecule": "CC1CN(C(=O)c2scc3c2OCCO3)CC(C)O1 (configuration not stated)",
    "inhibition / %": 17.3
  },
  {
    "molecule": "O=C(OCC(=O)N1CCC(Cc2ccccc2)CC1)c1ccc[nH]c1=O",
    "inhibition / %": 3.7
  },
  {
    "molecule": "CCc1cc(=O)n2[nH]c(C)c(-c3ccccc3OC)c2n1",
    "inhibition / %": 4.14
  },
  {
    "molecule": "Cc1nc(SCC(=O)Nc2cc(C)on2)c2c3c(sc2n1)CCCC3",
    "inhibition / %": 6.61
  },
  {
    "molecule": "O=C(O)C1CC=CCC1C(=O)NCc1ccccc1 (configuration not stated)",
    "inhibition / %": 10
  },
  {
    "molecule": "COc1ccccc1Nc1ccc(C(=O)NC2CCCCC2)cn1",
    "inhibition / %": -10.5
  },
  {
    "molecule": "CC(C)Oc1cc2oc(=O)c3c(c2cc1Cl)CCC3",
    "inhibition / %": -1.44
  },
  {
    "molecule": "CC(=O)c1ccc(OCC(O)CN2CCN(CCO)CC2)cc1 (configuration not stated)",
    "inhibition / %": 13.3
  },
  {
    "molecule": "COc1cccc(-c2cc(C(=O)NCc3ccc(Cl)cc3)no2)c1",
    "inhibition / %": 46
  },
  {
    "molecule": "CC(=O)NC(Cc1ccc(C)cc1)C(=O)NC1CCN(C(=O)c2cnccn2)CC1 (configuration not stated)",
    "inhibition / %": 13.8
  }
]
